Consider the following compounds; for each one, report its pIC50.
- Subject Of Test: CDK2/Cyclin E1 (Homo sapiens)
- Protocol Description: ADP-Glo Luminescent Kinase Assay (CDK2/E1-37C)
- Assay type: biochemical
- Study Conditions: 0.18 nM CDK2/Cyclin E1, 100 μM ATP, Histone H1, 37° C.; read-out: ADPGLO (CDK2/E1-37C): IC50
pIC50: −log10 of the molar value.

// lookup pIC50 for CC(C)(C(=O)N1CC2(CN(C(=O)c3cnn(Cc4ccc(F)cc4)c3)C[C@H]2COCc2cccc(C3CCC(F)(F)CC3)c2C(=O)O)C1)C(F)(F)F [Compound I-101] ≥ 6.30

Would you mind doing CC1(C)C[C@@H]1C(=O)N1CC2(CN(C(=O)c3cnn(Cc4ccc(C(=O)O)cc4)c3)CC2COCc2cccc(-c3ccc(C(F)(F)F)cc3)n2)C1 (stereo partly drawn) [Compound I-6] as well? < 5.00

Likewise for CC(C)(C(=O)N1CC2(CN(C(=O)c3cnn(Cc4ccc(F)cc4)c3)C[C@H]2COCc2cccc(N3CCC(C(F)(F)F)CC3)c2C(=O)O)C1)C(F)(F)F [I′-19] ? ≥ 6.30

Now this one: CC1(C)C[C@@H]1C(=O)N1CC2(CN(C(=O)c3cnn(Cc4ccc(F)cc4)c3)CC2COCc2cccc(Br)c2C(=O)O)C1 (stereo partly drawn) [I′-81] 5.30 to 6.30

Please answer likewise for COc1ccc(C2CCC(F)(F)CC2)c(C(=O)O)c1COCC1CN(C(=O)c2cnn(Cc3ccc(F)cc3)c2)CC12CN(C(=O)C1(C(F)(F)F)CC1)C2 (stereo not drawn) [I′-67] ≥ 6.30

// query: O=C(O)c1c(COCC2CN(C(=O)c3cnn(Cc4ccc(F)cc4)c3)CC23CN(C(=O)C2(C(F)(F)F)CC2)C3)cccc1-c1ccc(Cl)cc1F (stereo not drawn) [I′-73] ≥ 6.30

Try this compound next: O=C(c1cnn(Cc2ccc(F)cc2)c1)N1CC(COCc2cccc(C3CCC(F)(F)CC3)c2-c2noc(=O)[nH]2)C2(C1)CN(C(=O)C1(C(F)(F)F)CC1)C2 (stereo not drawn) [I′-55] ≥ 6.30

Another compound to look at: CC(C)(C(=O)N1CC2(CN(C(=O)c3cnn(Cc4ccc(F)cc4)c3)CC2COCc2cccc(C3CCC(F)(F)CC3)c2C(=O)O)C1)C(F)(F)F (stereo not drawn) [I′-76] ≥ 6.30

What about this compound? CC1(C)C[C@@H]1C(=O)N1CC2(CN(C(=O)c3cnn(Cc4ccc(F)cc4)c3)CC2COc2cccc(CC3CCC(F)(F)CC3)c2C(=O)O)C1 (stereo partly drawn) [Compound I-129] ≥ 6.30

Thanks! And O=C(O)c1c(COC[C@@H]2CN(c3cc(C(F)(F)F)c(F)c4ncsc34)CC23CN(C(=O)C2(C(F)(F)F)CC2)C3)cccc1C1CCC(F)(F)CC1 [I′-48] ? 5.00 to 5.30

Entry CC(C)(C(=O)N1CC2(CN(C(=O)c3cnn(Cc4ccc(F)cc4)c3)C[C@H]2COCc2cccc(C3CCC(C(F)(F)F)CC3)c2CC(=O)O)C1)C(F)(F)F (stereo partly drawn) [I′-23] please ≥ 6.30

Another compound to check: CC(C)(C(=O)N1CC2(CN(C(=O)c3cnn(Cc4cc(F)cc(F)c4)c3)C[C@H]2COCc2cccc(C3CCC(F)(F)CC3)c2C(=O)O)C1)C(F)(F)F [I′-45] ≥ 6.30
